- targetOfAssay: Arf-GAP with SH3 domain, ANK repeat and PH domain-containing protein 1 (Homo sapiens)
- procedureDetails: inhibitors of human ASAP1 ArfGAP activity, primary screen, biochemical, fluorescence polarization (AID 624377);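 also: 0% = vehicle with enzyme and substrate and 100% = no enzyme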
- studyConditions: ASAP1-stimulated ARF1 GTP hydrolysis, GDP FP detection; at 16.5 µM; active compounds read high
The whole screen tested about 360,000 compounds, of which about 680 (0.19%) were called active. The full list was thinned out, with actives kept by preference.
Please respond with reported inhibition for every item in the list.

Give reported inhibition value for CC(C)CNc1cccc2c1S(=O)(=O)N[C@H](CC(C)C)CO2 14.4% (inactive)

Answer with the recorded inhibition of COc1ccccc1CCn1cnc(-c2ccccc2)c1C(C)C only. 16.9% (inactive)

Check the records and state inhibition for OCCNCCOc1ccc(Cl)c(Cl)c1 -8.06% (inactive)

# return recorded inhibition for input COc1cccc(NC(=O)N(C)C[C@@H]2OCc3cn(nn3)CCCC(=O)N([C@@H](C)CO)C[C@H]2C)c1 -14.2% (inactive)

Give the value of inhibition reported for the following: O=C(NS(=O)(=O)c1cccs1)[C@H]1O[C@@H](n2ccc(=O)[nH]c2=O)[C@H](O)[C@@H]1O -0.42% (inactive)

====

- targetOfAssay: Arf-GAP with SH3 domain, ANK repeat and PH domain-containing protein 1 (Homo sapiens)
- procedureDetails: inhibitors of human ASAP1 ArfGAP activity, primary screen, biochemical, fluorescence polarization (AID 624377);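 also: 0% = vehicle with enzyme and substrate and 100% = no enzyme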
- studyConditions: ASAP1-stimulated ARF1 GTP hydrolysis, GDP FP detection; at 16.5 µM
The campaign covered roughly 360,000 compounds. About 680 (0.19%) were called active. No stated cut-off is given here; in the data, active means inhibition above about 25%; inactive means the rest. Shown is part of a subset that was picked to be rich in actives.
Pick from active, inactive when you respond.

What call does the record list for COc1ccc(-c2cc(NC=O)c3ncc(-c4cccc(C(=O)N(C)C)c4)n3c2)c(OC)c1 ? inactive

State the result this test recorded for CC(=O)c1cccc(-c2cnc3c(NC=O)cc(-c4ccccc4Oc4ccccc4)cn23)c1 . inactive

Query: recorded result category for CCn1c2ccccc2c2cc(NC(=O)COC(=O)c3cc(S(=O)(=O)N4CCCCC4)ccc3Cl)ccc21 in this test inactive

Write down the call the test reported for this molecule. Item: CC(=O)Nc1cc(-c2ccc(N3CCN(C)CC3)cc2)cn2c(-c3ccc(F)cc3)cnc12 active

Which outcome did this test record for the molecule CCCCCCCCN1C(=O)[C@@H](CC(=O)NCc2ccc(C)o2)C[C@@]2(C(=O)OC)C1=C[C@H](C(C)(C)C)O[C@@H]2C ? inactive

What was the test verdict on CC(=O)Nc1cccc(-c2cc(NC(C)=O)c3ncc(-c4ccccc4)n3c2)c1 ? inactive

Please state the recorded outcome for this molecule: CC(=O)Nc1cc(-c2ccc(N3CCN(C)CC3)cc2)cn2c(-c3cccc(C(=O)N(C)C)c3)cnc12 active

Call for entry Cc1ccc(N)cc1CN1CCN(c2ncc(Cc3ccccc3)cn2)CC1 : inactive

So what was the verdict on COC(=O)Nc1nc2ccc(C(=O)C3CC3)cc2[nH]1 in this test? inactive

# outcome recorded in this test, key = O=CNc1cc(-c2ccc(C(=O)N3CCOCC3)cc2)cn2c(-c3ccc(F)cc3)cnc12 inactive

Please share the test call associated with CCn1c2ccccc2c2cc(NC(=S)N3CCOCC3)ccc21 . inactive

Hey, what did the test say about CCn1c2ccccc2c2cc(NC(=O)C/C(C)=N/NC(=O)c3ccccc3N)ccc21 ? active

Hi, do you know how O=C(N[C@H](Cc1ccccc1)C(=O)N1CCCN(Cc2cccs2)CC1)[C@H]1O[C@@H](n2ccc(=O)[nH]c2=O)[C@H](O)[C@@H]1O came out in this test? inactive

Each molecule tested received a call. Report the one for C=CC[C@]12C[C@@]3(O[C@H](c4ccc(C(F)(F)F)cc4)N=C3C[C@H](c3ccc(OC)cc3)[C@H]1C)N(C1CCN(Cc3ccccc3)CC1)C2=O . inactive

Call for entry COC(=O)C1=C(C)N(Cc2ccc(C(F)(F)F)cc2)C(=NCc2ccccc2)NC1c1ccccc1C(F)(F)F (stereo not drawn) : inactive

For this molecule, state the assay outcome: COc1cccc(-c2cc(NC(C)=O)c3ncc(-c4cccc(C(C)=O)c4)n3c2)c1 inactive

Per the records of this test, what outcome belongs to CC(=O)c1cccc(-c2cnc3c(NC=O)cc(-c4ccc(N5CCN(C)CC5)cc4)cn23)c1 ? active

Can you look up the reported call for CC(C)[C@H]1COCCS(=O)(=O)N1Cc1ccccc1-c1cccc2c1sc1ccccc12 for me? inactive
